assay: GAPDH versus PEG-3 reporter suppression – cell-based, luminescence, counter-screen for PEG-3 promoter inhibitor project, SAR follow-up (AID 651551); settings: HeLa PEG-Prom / GAPDH luciferase reporter, 6 or 24 h; GAPDH; mean of runs, 6 h
Calls of active or inactive are those of the source.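 Rule for the calls: active = compounds blocking the Peg3 reporter with IC50 up to 10 µM at 6 or 24 hours, yet inert on a control reporter; inactive = the rest.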
Observation type: IC50

>  <Smi>
COc1ccc(Cl)cc1Nc1nc(-c2sc(NC(=O)c3ccccc3)nc2C)cs1

>  <Recorded measurement>
> 99 µM (inactive)

$$$$
>  <Smi>
CCCn1nc(C(=O)Nc2nc3ccccc3s2)c2ccccc2c1=O

>  <Recorded measurement>
> 99 µM (inactive)

$$$$
>  <Smi>
COc1ccc(-n2nc(C(=O)NCC(=O)Nc3ccc(OC)c(OC)c3)c3ccccc3c2=O)cc1

>  <Recorded measurement>
inactive

$$$$
>  <Smi>
O=C(Nc1nccs1)c1nn(-c2ccccc2)c(=O)c2ccccc12

>  <Recorded measurement>
inactive

$$$$
>  <Smi>
Cc1nc(NC(=O)c2ccccc2)sc1-c1csc(Nc2ccccc2Cl)n1

>  <Recorded measurement>
> 99 µM (inactive)

$$$$
>  <Smi>
Cc1nc(NC(=O)c2ccccc2)sc1-c1csc(Nc2ccccc2)n1

>  <Recorded measurement>
inactive

$$$$
>  <Smi>
Cc1cc(NC(=O)c2ccccc2)n(-c2nc3ccccc3[nH]2)n1

>  <Recorded measurement>
> 99 µM (inactive)

$$$$
>  <Smi>
CCCn1nc(C(=O)Nc2nc(-c3ccccn3)cs2)c2ccccc2c1=O

>  <Recorded measurement>
inactive

$$$$
>  <Smi>
O=C(Nc1nc(-c2ccccc2)cs1)c1nn(-c2ccccc2)c(=O)c2ccccc12

>  <Recorded measurement>
> 99 µM (inactive)

$$$$
>  <Smi>
COc1ccccc1Nc1nc(-c2sc(NC(=O)c3ccco3)nc2C)cs1

>  <Recorded measurement>
inactive

$$$$
>  <Smi>
CCCn1nc(C(=O)Nc2nc(-c3ccncc3)cs2)c2ccccc2c1=O

>  <Recorded measurement>
inactive

$$$$
>  <Smi>
CCn1cc(C(=O)NCc2ccco2)c(=O)c2cc(S(=O)(=O)N3CCCC3)ccc21

>  <Recorded measurement>
> 99 µM (inactive)

$$$$
>  <Smi>
CCn1nc(C(=O)Nc2nc(-c3ccccn3)cs2)c2ccccc2c1=O

>  <Recorded measurement>
inactive

$$$$
>  <Smi>
COc1ccc(-n2nc(C(=O)NCC(=O)Nc3cccc(OC)c3)c3ccccc3c2=O)cc1

>  <Recorded measurement>
> 99 µM (inactive)

$$$$
>  <Smi>
Cc1ccc(Cl)cc1Nc1nc(-c2sc(NC(=O)c3ccco3)nc2C)cs1

>  <Recorded measurement>
inactive

$$$$
>  <Smi>
COCCCNC(=O)c1ccc(Cn2c(=O)c3ccccc3n(Cc3ccccc3C#N)c2=O)cc1

>  <Recorded measurement>
> 99 µM (inactive)

$$$$
>  <Smi>
Cc1cc(NC(=O)c2ccccc2)n(-c2nc3ccccc3n2C)n1

>  <Recorded measurement>
> 99 µM (inactive)

$$$$
>  <Smi>
Cc1cc(NC(=O)c2ccccc2C(F)(F)F)n(-c2nc3ccccc3[nH]2)n1

>  <Recorded measurement>
inactive

$$$$
>  <Smi>
Cc1nc(NC(=O)c2ccccc2)sc1-c1csc(Nc2cccc(Cl)c2C)n1

>  <Recorded measurement>
> 99 µM (inactive)

$$$$
>  <Smi>
Cc1cc(NC(=O)c2cccc(C)c2C)n(-c2nc3ccccc3[nH]2)n1

>  <Recorded measurement>
> 99 µM (inactive)

$$$$
>  <Smi>
COc1ccc(-n2nc(C(=O)NCC(=O)Nc3cc(OC)c(OC)c(OC)c3)c3ccccc3c2=O)cc1OC

>  <Recorded measurement>
> 99 µM (inactive)

$$$$
>  <Smi>
O=C(Nc1nc2ccccc2s1)c1nn(-c2ccccc2)c(=O)c2ccccc12

>  <Recorded measurement>
> 99 µM (inactive)

$$$$
>  <Smi>
Cc1cc(NC(=O)c2ccccc2C)n(-c2nc3ccccc3[nH]2)n1

>  <Recorded measurement>
> 99 µM (inactive)

$$$$
